system: Staphylococcus aureus MW2 (mecA+); experiment: normalized DsRed fluorescence (growth of mecA+ strain) (fraction of control range); higher = more growth of mecA+ strain; conditions: compound concentration: 150 uM; cefoxitin: subinhibitory; fluorescent label: DsRed
Where a name gives a salt, the structure may show the parent alone.
readoutKind: normalized DsRed fluorescence

>  <molecule>
Fc1ccc([C@@H]2CCNC[C@H]2COc2ccc3c(c2)OCO3)cc1

>  <recordedValue>
1.15

$$$$
>  <molecule>
O.O.O.O.O=C([O-])CC(O)(CC(=O)[O-])C(=O)[O-].[Li+].[Li+].[Li+]

>  <recordedValue>
1.09

$$$$
>  <molecule>
CC[C@H](C)C(=O)O[C@H]1C[C@@H](C)C=C2C=C[C@H](C)[C@H](CC[C@@H]3C[C@@H](O)CC(=O)O3)[C@H]21

>  <recordedValue>
0.697

$$$$
>  <molecule>
CC(C)NCC(O)c1ccc(NS(C)(=O)=O)cc1 (stereo not drawn)

>  <recordedValue>
0.703

$$$$
>  <molecule>
C[C@]12C=CC(=O)N[C@@H]1CC[C@@H]1[C@@H]2CC[C@]2(C)[C@@H](C(=O)Nc3cc(C(F)(F)F)ccc3C(F)(F)F)CC[C@@H]12 [Dutasteride]

>  <recordedValue>
0.52

$$$$
>  <molecule>
CCOC(=O)OC(C)OC(=O)[C@@H]1N2C(=O)[C@@H](NC(=O)[C@H](N)c3ccccc3)[C@H]2SC1(C)C (stereo partly drawn)

>  <recordedValue>
0.591

$$$$
>  <molecule>
CCCN1CCCC[C@H]1C(=O)Nc1c(C)cccc1C [Ropivacaine HCl]

>  <recordedValue>
1.01

$$$$
>  <molecule>
COC1=CC(=O)C[C@@H](C)[C@]12Oc1c(Cl)c(OC)cc(OC)c1C2=O

>  <recordedValue>
0.425

$$$$

---

test system: Staphylococcus aureus MW2 (mecA+); experiment: normalized DsRed fluorescence (growth of mecA+ strain) (fraction of control range); higher = more growth of mecA+ strain; settings: compound concentration: 150 uM; cefoxitin: subinhibitory; fluorescent label: DsRed

>  <compound>
Cc1ccccc1N1C(=O)c2cc(S(N)(=O)=O)c(Cl)cc2NC1C (centres undefined)

>  <normalized DsRed fluorescence>
1.33

$$$$
>  <compound>
CN1CC2c3ccccc3Oc3ccc(Cl)cc3C2C1 (centres undefined) [Asenapine]

>  <normalized DsRed fluorescence>
1.64

$$$$
>  <compound>
NC(=O)Cc1cccc(C(=O)c2ccccc2)c1N [Nepafenac]

>  <normalized DsRed fluorescence>
0.818

$$$$
>  <compound>
CCC1=C[C@@H]2CN(C1)Cc1c([nH]c3ccccc13)[C@@](C(=O)OC)(c1cc3c(cc1OC)N(C)[C@H]1[C@@](O)(C(=O)OC)[C@H](OC(C)=O)[C@]4(CC)C=CCN5CC[C@]31[C@@H]54)C2 [Vinorelbine (Navelbine)]

>  <normalized DsRed fluorescence>
0.921

$$$$
>  <compound>
C[C@H](CS)C(=O)N1CCC[C@H]1C(=O)O

>  <normalized DsRed fluorescence>
0.842

$$$$
>  <compound>
O=C1N=C(O)NC1(c1ccccc1)c1ccccc1

>  <normalized DsRed fluorescence>
1.06

$$$$
>  <compound>
CCC1(c2ccccc2)NC(=O)N(C)C1=O (centres undefined)

>  <normalized DsRed fluorescence>
0.963

$$$$
>  <compound>
O=C1NCC2(CCN(CCc3ccccc3)CC2)O1

>  <normalized DsRed fluorescence>
0.724

$$$$
>  <compound>
CN1CCN(C2=Nc3cc(Cl)ccc3Nc3ccccc32)CC1 [Clozapine (Clozaril)]

>  <normalized DsRed fluorescence>
1.01

$$$$
